assay: xn = mol fraction of the nth substance listed; conditions: 313.15 K; 100 kPa; Liquid; Vibrating tube method; x1 = 0.03
Numbers after ± are expanded uncertainties.
measure: mass density

INSERT INTO results (compound, measure, experimental_value) VALUES
  ('[Cl-].[Li+] [lithium chloride] + O', 'mass density', '1032.3 ± 0.2 kg/m3'),
  ('[F-].[Rb+] [rubidium fluoride (RbF)] + O', 'mass density', '1141.9 ± 0.3 kg/m3'),
  ('[Cl-].[Cs+] [cesium chloride] + O', 'mass density', '1198.6 ± 0.3 kg/m3'),
  ('[Br-].[Rb+] [rubidium bromide] + O', 'mass density', '1194.5 ± 0.3 kg/m3'),
  ('[Cl-].[Na+] [sodium chloride] + O', 'mass density', '1058 ± 0.2 kg/m3'),
  ('[I-].[Li+] [lithium iodide] + O', 'mass density', '1151 ± 0.3 kg/m3'),
  ('[Cs+].[I-] [cesium iodide] + O', 'mass density', '1308.9 ± 0.4 kg/m3'),
  ('[I-].[Na+] [sodium iodide] + O', 'mass density', '1176.3 ± 0.3 kg/m3'),
  ('[Cl-].[K+] [potassium chloride] + O', 'mass density', '1067 ± 0.2 kg/m3'),
  ('[Cl-].[Rb+] [rubidium chloride] + O', 'mass density', '1135 ± 0.3 kg/m3'),
  ('[I-].[Rb+] [rubidium iodide (RbI)] + O', 'mass density', '1248.4 ± 0.4 kg/m3'),
  ('[Br-].[K+] [potassium bromide] + O', 'mass density', '1129.1 ± 0.3 kg/m3');

----------
Here, each record is paired with measured mass density data.
experiment: xn = mol fraction of the nth substance listed; details: 333.15 K; 100 kPa; Liquid; Vibrating tube method; x1 = 0.05
measure: mass density (kg/m3)

INSERT INTO results (molecule, measure, experimental_value) VALUES
  ('[Cl-].[Rb+] [rubidium chloride] + O', 'mass density', 1216.3),
  ('[I-].[K+] [potassium iodide] + O', 'mass density', 1292.4),
  ('[Cl-].[Cs+] [cesium chloride] + O', 'mass density', 1319.1),
  ('[F-].[K+] [potassium fluoride] + O', 'mass density', 1116.9),
  ('[I-].[Li+] [lithium iodide] + O', 'mass density', 1245.5),
  ('[Br-].[Rb+] [rubidium bromide] + O', 'mass density', 1312.2);

----------
assay: xn = mol fraction of the nth substance listed; conditions: 293.15 K; 100 kPa; Liquid; Vibrating tube method; x1 = 0.01
measure: mass density (kg/m3)

INSERT INTO measurements (molecule, experimental_value) VALUES
  ('[I-].[Na+] [sodium iodide] + O', 1061.7),
  ('[Br-].[Na+] [sodium bromide] + O', 1043.6),
  ('[Cl-].[Li+] [lithium chloride] + O', 1012.3),
  ('[Cs+].[I-] [cesium iodide] + O', 1109.5),
  ('[F-].[Rb+] [rubidium fluoride (RbF)] + O', 1048.7),
  ('[Br-].[Cs+] [cesium bromide] + O', 1090.5),
  ('[Cl-].[Rb+] [rubidium chloride] + O', 1048.3);

----------
experiment: xn = mol fraction of the nth substance listed; settings: 313.15 K; 100 kPa; Liquid; Vibrating tube method; x1 = 0.01
Here, each record is paired with measured mass density data.
measure: mass density (kg/m3)

INSERT INTO results (compound, units_symbol, experimental_value) VALUES
  ('[F-].[Na+] [sodium fluoride] + O', 'kg/m3', 1016),
  ('[Cs+].[F-] [cesium fluoride (CsF)] + O', 'kg/m3', 1064.3),
  ('[I-].[Rb+] [rubidium iodide (RbI)] + O', 'kg/m3', 1079.8),
  ('[I-].[Li+] [lithium iodide] + O', 'kg/m3', 1045.7),
  ('[Cl-].[Li+] [lithium chloride] + O', 'kg/m3', 1006.2),
  ('[Br-].[Li+] [lithium bromide] + O', 'kg/m3', 1026.3),
  ('[Cl-].[K+] [potassium chloride] + O', 'kg/m3', 1017.7),
  ('[I-].[K+] [potassium iodide] + O', 'kg/m3', 1057.9),
  ('[Br-].[Rb+] [rubidium bromide] + O', 'kg/m3', 1060.7),
  ('[Br-].[Na+] [sodium bromide] + O', 'kg/m3', 1035.8),
  ('[Cs+].[I-] [cesium iodide] + O', 'kg/m3', 1101),
  ('[I-].[Na+] [sodium iodide] + O', 'kg/m3', 1054.2);

----------
experiment: xn = mol fraction of the nth substance listed; conditions: 333.15 K; 100 kPa; Liquid; Vibrating tube method; x1 = 0.05
measure: mass density (kg/m3)

INSERT INTO measurements (compound, experimental_value) VALUES
  ('[Cl-].[K+] [potassium chloride] + O', 1104.9),
  ('[Cs+].[I-] [cesium iodide] + O', 1489.1),
  ('[Cl-].[Li+] [lithium chloride] + O', 1049.8),
  ('[Cl-].[Na+] [sodium chloride] + O', 1090.9),
  ('[Cs+].[F-] [cesium fluoride (CsF)] + O', 1329.1),
  ('[Br-].[Cs+] [cesium bromide] + O', 1412.4),
  ('[Br-].[Li+] [lithium bromide] + O', 1154.3),
  ('[I-].[Na+] [sodium iodide] + O', 1282.2),
  ('[F-].[Rb+] [rubidium fluoride (RbF)] + O', 1230.6),
  ('[Br-].[K+] [potassium bromide] + O', 1205.7),
  ('[Br-].[Na+] [sodium bromide] + O', 1194),
  ('[I-].[Rb+] [rubidium iodide (RbI)] + O', 1394.6);

----------
Here, each record is paired with measured mass density data.
assay: xn = mol fraction of the nth substance listed; details: 323.15 K; 100 kPa; Liquid; Vibrating tube method; x1 = 0.01
measure: mass density (kg/m3)

INSERT INTO measurements (compound, measure, experimental_value) VALUES
  ('[Cl-].[Li+] [lithium chloride] + O', 'mass density', 1002.1),
  ('[I-].[Rb+] [rubidium iodide (RbI)] + O', 'mass density', 1074.9),
  ('[Cl-].[Na+] [sodium chloride] + O', 'mass density', 1010.1),
  ('[I-].[K+] [potassium iodide] + O', 'mass density', 1053.2),
  ('[Br-].[Cs+] [cesium bromide] + O', 'mass density', 1077.6),
  ('[I-].[Li+] [lithium iodide] + O', 'mass density', 1041.2),
  ('[Cs+].[I-] [cesium iodide] + O', 'mass density', 1096),
  ('[Cs+].[F-] [cesium fluoride (CsF)] + O', 'mass density', 1059.9),
  ('[Cl-].[K+] [potassium chloride] + O', 'mass density', 1013.3),
  ('[F-].[Na+] [sodium fluoride] + O', 'mass density', 1011.5),
  ('[F-].[Rb+] [rubidium fluoride (RbF)] + O', 'mass density', 1037.6),
  ('[Cl-].[Cs+] [cesium chloride] + O', 'mass density', 1057.5),
  ('[Cl-].[Rb+] [rubidium chloride] + O', 'mass density', 1036.1);

----------
experiment: xn = mol fraction of the nth substance listed; settings: 293.15 K; 100 kPa; Liquid; Vibrating tube method; x1 = 0.01
Numbers after ± are expanded uncertainties.
measure: mass density

INSERT INTO results (compound, experimental_value) VALUES
  ('[Br-].[K+] [potassium bromide] + O', '1045.7 ± 0.2 kg/m3'),
  ('[Cl-].[K+] [potassium chloride] + O', '1024.3 ± 0.2 kg/m3'),
  ('[F-].[Na+] [sodium fluoride] + O', '1022.7 ± 0.2 kg/m3'),
  ('[I-].[Li+] [lithium iodide] + O', '1053.3 ± 0.2 kg/m3'),
  ('[I-].[K+] [potassium iodide] + O', '1065.2 ± 0.2 kg/m3'),
  ('[Br-].[Rb+] [rubidium bromide] + O', '1068.6 ± 0.2 kg/m3'),
  ('[Cl-].[Cs+] [cesium chloride] + O', '1069.9 ± 0.2 kg/m3');

----------
Here, each record is paired with measured mass density data.
test: xn = mol fraction of the nth substance listed; conditions: 303.15 K; 100 kPa; Liquid; Vibrating tube method; x1 = 0.05
measure: mass density (kg/m3)

INSERT INTO assay_data (compound, units_symbol, experimental_value) VALUES
  ('[F-].[Rb+] [rubidium fluoride (RbF)] + O', 'kg/m3', 1246.1),
  ('[I-].[K+] [potassium iodide] + O', 'kg/m3', 1312.1),
  ('[Cl-].[Li+] [lithium chloride] + O', 'kg/m3', 1061.2);
